Collected set of IC50 measured with PIK3CD (Human) (UniProt O00329) across studies.

                                   compound                       testtarget    recordedresult
0  C[C@H](NC(=O)c1c(N)nn2cccnc12)c1cc2ccccc2c(=O)n1-c1ccccc1  PIK3CD (Human) (UniProt O00329)  1000 to 10000 nM

Input: Write down the reported IC50 of C[C@H]1[C@@H](CCO)OC(=O)N1c1cc(-c2cnc(N)nc2C(F)(F)F)nc(N2CCOCC2)n1 , test system: PIK3CD (Human) (UniProt O00329).
Output: 9 nM

Input: Write down the reported IC50 of Cc1nn(C(C)c2cc(Cl)c(C#N)c3c2OC(C)CN(Cc2cccnc2)C3)c2ncnc(N)c12 (single isomer, unassigned) , test system: PIK3CD (Human) (UniProt O00329).
Output: ≤ 100 nM

Input: Write down the reported IC50 of C[C@H](Nc1ncnc2[nH]cnc12)c1cc2cccc(-c3cccnc3)c2c(Cl)n1 , test system: PIK3CD (Human) (UniProt O00329).
Output: < 100 nM

Input: Write down the reported IC50 of C[C@H](Nc1ncnc2cccnc12)c1cc2cccc(Cl)c2c(OCCN2CCCC2)n1 , test system: PIK3CD (Human) (UniProt O00329).
Output: < 100 nM

Input: Write down the reported IC50 of COc1ccc(-c2nn(C3Cc4ccccc4C3)c3ncnc(N)c23)cc1N , test system: PIK3CD (Human) (UniProt O00329).
Output: 325 nM

Input: Write down the reported IC50 of CC#CCN(CC(C)(C)O)[C@H]1CC[C@H](CNc2nc(N3CCOCC3)cc(-n3c(C(F)F)nc4ccccc43)n2)CC1 , test system: PIK3CD (Human) (UniProt O00329).
Output: 7.1 nM

Input: Write down the reported IC50 of FC(F)c1nc2ccccc2n1-c1cc(NC[C@H]2CC[C@H](N3CCOCC3)CC2)nc(N2CCOCC2)n1 , test system: PIK3CD (Human) (UniProt O00329).
Output: 6.2 nM

Input: Write down the reported IC50 of COC(=O)N[C@@H]1CCN([C@H]2CC[C@H](Oc3cc(-n4c(C(F)F)nc5ccccc54)nc(N4CCOCC4)n3)CC2)C1=O , test system: PIK3CD (Human) (UniProt O00329).
Output: 11 nM

Input: Write down the reported IC50 of COc1cc(-c2csc3cc([C@H](C)NC(=O)c4c(N)nn5cccnc45)n(-c4ccccc4)c(=O)c23)ccn1 , test system: PIK3CD (Human) (UniProt O00329).
Output: > 10000 nM

Input: Write down the reported IC50 of C[C@H](NC(=O)c1nc(C#N)cnc1N)c1cc2cccc(Cl)c2c(=O)n1-c1ccccc1 , test system: PIK3CD (Human) (UniProt O00329).
Output: 100 to 1000 nM

Input: Write down the reported IC50 of CC(C)N1CCOc2c(F)cc(-c3nc(Nc4cc(N5CCCNCC5)ccn4)ncc3F)cc21 , test system: PIK3CD (Human) (UniProt O00329).
Output: > 50000 nM

Input: Write down the reported IC50 of Cc1ccccc1-n1c(Cn2nc(-c3ccc(O)c(F)c3)c3c(N)ncnc32)cc2nccc(C)c2c1=O , test system: PIK3CD (Human) (UniProt O00329).
Output: < 100 nM

Input: Write down the reported IC50 of Nc1nc2cc(-c3ccc4ncn(CCO)c(=O)c4c3)ccc2o1 , test system: PIK3CD (Human) (UniProt O00329).
Output: > 10000 nM

Input: Write down the reported IC50 of C[C@H](NC(=O)c1c(N)nn2cccnc12)c1c(C#N)c2cccc(F)c2c(=O)n1-c1ccccc1 , test system: PIK3CD (Human) (UniProt O00329).
Output: 100 to 1000 nM

Input: Write down the reported IC50 of Cc1ccccc1-n1c(Cn2nc(/C=C/C(=O)N3CCOCC3)c3c(N)ncnc32)cc2cccc(C)c2c1=O , test system: PIK3CD (Human) (UniProt O00329).
Output: < 1000 nM

Input: Write down the reported IC50 of COCCN[C@H]1CC[C@H](CNc2cc(-n3c(C(F)F)nc4ccccc43)nc(N3CCOCC3)n2)CC1 , test system: PIK3CD (Human) (UniProt O00329).
Output: 17 nM

Input: Write down the reported IC50 of C[C@H](O)C(=O)N1CCN(Cc2csc3c(-c4cnc(N)nc4)nc(N4CCOCC4)nc23)CC1 , test system: PIK3CD (Human) (UniProt O00329).
Output: 12.6 nM

Input: Write down the reported IC50 of Nc1nc2cc(-c3ccc4ncc(C(=O)NC5CC5)n4c3)ccc2o1 , test system: PIK3CD (Human) (UniProt O00329).
Output: < 1000 nM

Input: Write down the reported IC50 of Cc1ccccc1-n1c(Cn2nc(I)c3c(N)ncnc32)cc2ccccc2c1=O , test system: PIK3CD (Human) (UniProt O00329).
Output: < 1000 nM

Input: Write down the reported IC50 of COCCN(C)[C@H]1CC[C@H](CNc2nc(N3CCOCC3)cc(-n3c(C(F)F)nc4ccccc43)n2)CC1 , test system: PIK3CD (Human) (UniProt O00329).
Output: 14 nM
